Origin of measurements: the supplement of paper PMC11061612

# Test system: MIA-PaCa-2 (Pancreatic Carcinoma)
# experimentalDetails: combination Emax (second highest fraction inhibited in the dose matrix, 72 h); higher = more inhibition; extreme values may be limits of the assay
measuredQuantity: combination Emax
Please respond with just the number, no unit label.

Identify measured combination Emax corresponding to CN(CCO)CC[C@H](CSc1ccccc1)Nc1ccc(S(=O)(=O)NC(=O)c2ccc(N3CCC([C@@H](O)c4ccccc4-c4ccc(Cl)cc4)CC3)cc2)cc1S(=O)(=O)C(F)(F)F [AZD4320] + CN(C)CCCOc1ccc(-c2ccc3ncc4c(c3c2)n(C2CCOCC2)c(=O)n4C)cn1 [AZD0156] (first compound max 1 µM, 7x7, partner max 1 µM)
0.141

Identify measured combination Emax corresponding to C=CCn1c(=O)c2cnc(Nc3ccc(N4CCN(C)CC4)cc3)nc2n1-c1cccc(C(C)(C)O)n1 [AZD1775] + CCc1c2c(nc3ccc(O)cc13)-c1cc3c(c(=O)n1C2)COC(=O)[C@]3(O)CC [SN-38] (first compound max 1 µM, partner max 0.3 µM)
0.969

Identify measured combination Emax corresponding to CC(=O)c1c(C)c2cnc(Nc3ccc(N4CCNCC4)cn3)nc2n(C2CCCC2)c1=O [Palbociclib] + Cc1c2c(nn1C)CSCc1cc(n(C)n1)CSc1cc(c3ccccc3c1)OCCCc1c(C(=O)O)n(C)c3c-2c(Cl)ccc13 [AZD5991] (first compound max 10 µM, 7x7, partner max 1 µM)
0.447

Identify measured combination Emax corresponding to CC(=O)c1c(C)c2cnc(Nc3ccc(N4CCNCC4)cn3)nc2n(C2CCCC2)c1=O [Palbociclib] + CC1(C)CCC(CN2CCN(c3ccc(C(=O)NS(=O)(=O)c4ccc(NCC5CCOCC5)c([N+](=O)[O-])c4)c(Oc4cnc5[nH]ccc5c4)c3)CC2)=C(c2ccc(Cl)cc2)C1 [Venetoclax] (first compound max 10 µM, 7x7, partner max 1 µM)
0.31
